Data origin: patent US11337964B2

TEST_SYSTEM: PDE4A1A (Homo sapiens, UniProt P27815)
Construct: purchased BPS 60040
Sequence (P27815 1-647 isoform P27815-4): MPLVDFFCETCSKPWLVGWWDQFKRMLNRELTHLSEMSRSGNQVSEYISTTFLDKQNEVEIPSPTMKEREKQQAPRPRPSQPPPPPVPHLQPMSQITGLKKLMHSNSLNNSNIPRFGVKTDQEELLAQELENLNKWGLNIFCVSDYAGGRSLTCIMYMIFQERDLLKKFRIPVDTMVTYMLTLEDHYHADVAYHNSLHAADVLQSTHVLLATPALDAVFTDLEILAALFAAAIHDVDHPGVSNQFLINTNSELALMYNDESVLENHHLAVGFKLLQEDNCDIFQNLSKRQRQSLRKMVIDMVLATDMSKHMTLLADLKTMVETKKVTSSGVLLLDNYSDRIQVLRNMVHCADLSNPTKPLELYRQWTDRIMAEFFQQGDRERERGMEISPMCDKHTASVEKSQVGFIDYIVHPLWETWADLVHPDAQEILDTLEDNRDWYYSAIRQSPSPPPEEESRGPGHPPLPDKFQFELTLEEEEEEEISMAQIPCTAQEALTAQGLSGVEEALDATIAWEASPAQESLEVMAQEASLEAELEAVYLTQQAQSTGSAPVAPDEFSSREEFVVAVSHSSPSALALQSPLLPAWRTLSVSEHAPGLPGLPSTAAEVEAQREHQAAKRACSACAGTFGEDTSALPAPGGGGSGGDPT
EXPERIMENTAL_PROTOCOL: PDE4 activity inhibition assay, PDE4A1A
Type: biochemical
MEASUREMENT_PARAMETERS: FAM-cAMP substrate, 30 minutes at room temperature
ASSAY_METRIC: IC50 (nM)
Report the value in nM with no unit label.

Entry CCOc1nc(C(CS(C)(=O)=O)N2C(=O)c3cccc(NC(=O)CO)c3C2=O)ccc1OC (stereo not shown) [Compound 739] ; IC50 = 14.5

Summary for this compound, CCOc1nc([C@H](CS(C)(=O)=O)N2C(=O)c3cccc(NC(C)=O)c3C2=O)ccc1OC [Compound 703] : IC50 is 30

For reference, reported IC50 for CCOc1nc([C@@H](CS(C)(=O)=O)N2C(=O)c3cc(F)cc(NC(C)=O)c3C2=O)ccc1OC [Compound 708] stands at 3.1

compound CCOc1nc(C(CS(C)(=O)=O)N2C(=O)c3c(F)ccc(NC(=O)CC(C)C)c3C2=O)ccc1OC (stereo not shown) [Compound 757] , IC50 observed: 2.5

----------
I'd be grateful if you could share measured log10 of IC50 for these entries.
TEST_SYSTEM: PDE4A1A (Homo sapiens)
Construct: purchased BPS 60040
EXPERIMENTAL_PROTOCOL: PDE4 activity inhibition assay, PDE4A1A
Assay type: biochemical
MEASUREMENT_PARAMETERS: FAM-cAMP substrate, 30 minutes at room temperature
Note the log scale: values are log10 of IC50 expressed in nM.

GET /value?item= `CCOc1nc([C@@H](CS(C)(=O)=O)N2C(=O)c3cccc(NC(=O)C4CC4)c3C2=O)ccc1OC` &field=log10 of IC50 returns 0.20

// field: log10 of IC50; key: `[2H]C([2H])([2H])Oc1ccc([C@@H](CS(C)(=O)=O)N2C(=O)c3c(F)ccc(NC(C)=O)c3C2=O)cc1OC([2H])([2H])[2H]` ; value = 1.79

Looking up CCOc1cc(C(CS(C)(=O)=O)N2C(=O)c3cccc(NC(C)=O)c3C2=O)ncc1OC (centres unmarked) , I found its log10 of IC50 recorded as 2.61

// CCOc1nc(C(CS(C)(=O)=O)N2C(=O)c3c(F)ccc(NC(=O)COC)c3C2=O)ccc1OC (centres unmarked) : log10 of IC50 value = 0.04

Value of log10 of IC50 reported for the compound `[2H]C([2H])([2H])Oc1ccc([C@@H](CS(C)(=O)=O)N2C(=O)c3c(F)ccc(NC(C)=O)c3C2=O)cc1OCC` is 0.86

`CCOc1cc([C@@H](CS(C)(=O)=O)N2C(=O)c3cc(F)cc(NC(C)=O)c3C2=O)ccc1OC` has a reported log10 of IC50 of 1.04

Entry `CCOc1cc([C@@H](CS(C)(=O)=O)N2C(=O)c3cncc(NC(C)=O)c3C2=O)ccc1OC` — recorded log10 of IC50 = 2.31

get_value(item= CCOc1nc(C(CS(C)(=O)=O)N2C(=O)c3cccc(NC(C)=O)c3C2=O)ccc1OC (centres unmarked) , readout=log10 of IC50) returns 0.40

log10 of IC50 reading for `[2H]C([2H])([2H])Oc1ccc([C@H](CS(C)(=O)=O)N2C(=O)c3c(F)ccc(NC(C)=O)c3C2=O)cc1OC([2H])([2H])[2H]` : 2.53

The reported log10 of IC50 of the compound CCOc1cc(C(CS(C)(=O)=O)N2C(=O)c3nccc(NC(C)=O)c3C2=O)ccc1OC (centres unmarked) was 2.44

Please fill in: log10 of IC50 reported for CCOc1nc(C(CS(C)(=O)=O)N2C(=O)c3cccc(NC(=O)CC(C)C)c3C2=O)ccc1OC (centres unmarked) = 0.49

Data point: CCOc1cc(C(CS(C)(=O)=O)N2C(=O)c3ccc(F)c(NC(C)=O)c3C2=O)ccc1OC (centres unmarked) ; log10 of IC50 = 2.01

For reference, reported log10 of IC50 for `CCOc1cc([C@@H](CS(C)(=O)=O)N2C(=O)c3ccc(F)c(NC(C)=O)c3C2=O)ccc1OC` stands at 1.52

log10 of IC50 reported for this compound `[2H]C([2H])([2H])Oc1ccc([C@H](CS(C)(=O)=O)N2C(=O)c3c(F)ccc(NC(C)=O)c3C2=O)cc1OCC` : 1.72

----------
TEST_SYSTEM: PDE4D3 (Homo sapiens)
Construct: purchased BPS 60046
Sequence (Q08499 1-673 isoform Q08499-2): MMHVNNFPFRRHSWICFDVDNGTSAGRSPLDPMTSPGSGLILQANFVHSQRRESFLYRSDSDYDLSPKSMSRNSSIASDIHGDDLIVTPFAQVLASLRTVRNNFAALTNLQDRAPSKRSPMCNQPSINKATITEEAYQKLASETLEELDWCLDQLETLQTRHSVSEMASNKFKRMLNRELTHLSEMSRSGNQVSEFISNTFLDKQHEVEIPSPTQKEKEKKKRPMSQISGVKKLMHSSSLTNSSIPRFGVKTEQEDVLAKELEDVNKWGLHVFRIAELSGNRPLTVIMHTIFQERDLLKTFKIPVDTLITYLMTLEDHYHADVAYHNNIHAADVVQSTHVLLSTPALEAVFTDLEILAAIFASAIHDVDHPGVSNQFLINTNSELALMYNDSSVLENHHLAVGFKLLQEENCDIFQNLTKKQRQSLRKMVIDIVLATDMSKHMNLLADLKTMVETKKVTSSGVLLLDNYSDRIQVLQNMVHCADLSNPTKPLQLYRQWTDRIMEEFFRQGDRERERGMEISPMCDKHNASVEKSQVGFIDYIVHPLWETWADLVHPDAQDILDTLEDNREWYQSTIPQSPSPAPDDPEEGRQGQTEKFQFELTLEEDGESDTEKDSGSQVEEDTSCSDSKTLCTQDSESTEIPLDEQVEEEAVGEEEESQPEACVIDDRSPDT
EXPERIMENTAL_PROTOCOL: PDE4 activity inhibition assay, PDE4D3
Assay type: biochemical
MEASUREMENT_PARAMETERS: FAM-cAMP substrate, 30 minutes at room temperature
I'd appreciate it if you could supply IC50 values for the items below.

IC50 reported for this compound CCOc1cc(C(CS(C)(=O)=O)N2C(=O)c3cc(F)cc(NC(C)=O)c3C2=O)ccc1OC (stereo not shown) : 25 nM

Recorded IC50 (compound `[2H]C([2H])([2H])Oc1ccc([C@H](CS(C)(=O)=O)N2C(=O)c3cc(F)cc(NC(C)=O)c3C2=O)cc1OCC` ): 83 nM

Value of measured IC50 for the entry `[2H]C([2H])([2H])Oc1ccc([C@@H](CS(C)(=O)=O)N2C(=O)c3c(F)ccc(NC(C)=O)c3C2=O)cc1OC([2H])([2H])[2H]` : 41 nM

Reported IC50 for CCOc1nc(C(CS(C)(=O)=O)N2C(=O)c3cccc(NC(C)=O)c3C2=O)ccc1OC (stereo not shown) was 2.1 nM

----------
TEST_SYSTEM: PDE4B1 (Homo sapiens)
Construct: purchased BPS 60041
EXPERIMENTAL_PROTOCOL: PDE4 activity inhibition assay, PDE4B1
Type: biochemical
MEASUREMENT_PARAMETERS: FAM-cAMP substrate, 30 minutes at room temperature
Provide the reported IC50 of each item.
Return type: number; implicit unit nM.

Entry `CCOc1nc([C@@H](CS(C)(=O)=O)N2C(=O)c3c(F)ccc(NC(C)=O)c3C2=O)ccc1OC` , IC50 reported as 1.6

// IC50 lookup, molecule = CCOc1nc(C(CS(C)(=O)=O)N2C(=O)c3cccc(NC(=O)CC(C)C)c3C2=O)ccc1OC (stereo not shown) , result: 4.7

Looking up CCOc1cc(C(CS(C)(=O)=O)N2C(=O)c3ccc(F)c(NC(C)=O)c3C2=O)ccc1OC (stereo not shown) , I found its IC50 recorded as 116

Looking up `CCOc1nc([C@@H](CS(C)(=O)=O)N2C(=O)c3cc(F)cc(NC(C)=O)c3C2=O)ccc1OC` , I found its IC50 recorded as 5.1

IC50 in this record for `CCOc1nc([C@@H](CS(C)(=O)=O)N2C(=O)c3c(F)ccc(NC(=O)C4CC4)c3C2=O)ccc1OC` : 1.9

So, CCOc1cc(C(CS(C)(=O)=O)N2C(=O)c3cc(F)cc(NC(C)=O)c3C2=O)ccc1OC (stereo not shown) ? Its IC50 was 41

Looking up `[2H]C([2H])([2H])Oc1ccc([C@@H](CS(C)(=O)=O)N2C(=O)c3c(F)ccc(NC(C)=O)c3C2=O)nc1OCC` , I see its IC50 listed as 3

Measured IC50, `[2H]C([2H])([2H])Oc1ccc([C@H](CS(C)(=O)=O)N2C(=O)c3cccc(NC(C)=O)c3C2=O)nc1OCC` : 82.8

Sample `[2H]C([2H])([2H])Oc1ccc([C@@H](CS(C)(=O)=O)N2C(=O)c3cc(F)cc(NC(C)=O)c3C2=O)cc1OC([2H])([2H])C([2H])([2H])[2H]` ; IC50 observed: 20

In plain terms, `[2H]C([2H])([2H])Oc1ccc([C@H](CS(C)(=O)=O)N2C(=O)c3c(F)ccc(NC(C)=O)c3C2=O)nc1OCC` has a documented IC50 of 57.8

Form field IC50, entry CCOc1nc(C(CS(C)(=O)=O)N2C(=O)c3cccc(NC(=O)COCc4ccccc4)c3C2=O)ccc1OC (stereo not shown) : 6.2

So, `CCOc1cc([C@@H](CS(C)(=O)=O)N2C(=O)c3c(Cl)ccc(NC(C)=O)c3C2=O)ccc1OC` ? Its IC50 was 4.3

Consider `[2H]C([2H])([2H])Oc1ccc([C@@H](CS(C)(=O)=O)N2C(=O)c3c(F)ccc(NC(C)=O)c3C2=O)cc1OC([2H])([2H])[2H]` . Its measured IC50 is 97

----------
TEST_SYSTEM: PDE4B1 (Homo sapiens, UniProt Q07343)
Construct: purchased BPS 60041
Sequence (Q07343 whole entry): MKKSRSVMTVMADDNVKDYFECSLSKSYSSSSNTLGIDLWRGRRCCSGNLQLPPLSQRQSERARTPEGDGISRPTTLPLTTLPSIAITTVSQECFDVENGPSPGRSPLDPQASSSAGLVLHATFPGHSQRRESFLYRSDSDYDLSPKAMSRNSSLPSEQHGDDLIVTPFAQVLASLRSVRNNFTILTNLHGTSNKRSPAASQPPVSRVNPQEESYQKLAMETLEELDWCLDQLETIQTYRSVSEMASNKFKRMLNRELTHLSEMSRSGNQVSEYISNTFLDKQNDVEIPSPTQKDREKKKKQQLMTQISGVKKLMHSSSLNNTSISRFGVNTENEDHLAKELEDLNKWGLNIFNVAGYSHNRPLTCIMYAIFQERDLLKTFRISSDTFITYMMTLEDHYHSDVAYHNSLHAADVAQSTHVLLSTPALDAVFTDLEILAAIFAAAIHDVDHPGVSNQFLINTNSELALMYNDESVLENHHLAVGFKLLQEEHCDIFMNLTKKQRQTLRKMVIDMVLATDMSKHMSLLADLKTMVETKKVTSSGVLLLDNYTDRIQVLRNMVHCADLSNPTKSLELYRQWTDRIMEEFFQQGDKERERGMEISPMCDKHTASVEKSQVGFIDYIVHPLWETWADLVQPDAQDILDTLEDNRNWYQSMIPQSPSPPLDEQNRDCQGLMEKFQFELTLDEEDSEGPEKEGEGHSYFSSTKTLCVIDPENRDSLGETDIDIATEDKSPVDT
EXPERIMENTAL_PROTOCOL: PDE4 activity inhibition assay, PDE4B1
Format: biochemical
MEASUREMENT_PARAMETERS: FAM-cAMP substrate, 30 minutes at room temperature
ASSAY_METRIC: log10 IC50 (log10 of the value in nM)
Plainly stated, the numbers are log10 of IC50 given in nM.

According to the records, this molecule CCOc1nc(C(CS(C)(=O)=O)N2C(=O)c3c(F)ccc(NC(=O)COC)c3C2=O)ccc1OC (stereo not shown) displays log10 IC50 of 0.41

Looking up `[2H]C([2H])([2H])Oc1ccc([C@H](CS(C)(=O)=O)N2C(=O)c3cc(F)cc(NC(C)=O)c3C2=O)cc1OCC` , I found its log10 IC50 recorded as 2.20

Data point: `[2H]C([2H])([2H])Oc1ccc([C@@H](CS(C)(=O)=O)N2C(=O)c3cccc(NC(=O)C4CC4)c3C2=O)cc1OCC` ; log10 IC50 = 1.04

Lab note: measured log10 IC50 of CCOc1cc(C(CS(C)(=O)=O)N2C(=O)c3c(F)ccc(NC(C)=O)c3C2=O)ccc1OC(F)F (stereo not shown) was 0.85

GET /value?item= `CCOc1cc([C@@H](CS(C)(=O)=O)N2C(=O)c3c(C#N)ccc(NC(C)=O)c3C2=O)ccc1OC` &field=log10 IC50 returns 1.24

Short answer for `[2H]C([2H])([2H])Oc1ccc([C@@H](CS(C)(=O)=O)N2C(=O)c3c(F)ccc(NC(=O)C4CC4)c3C2=O)nc1OCC` : log10 IC50 was 0.34

Record `CCOc1nc([C@@H](CS(C)(=O)=O)N2C(=O)c3cccc(NC(C)=O)c3C2=O)ccc1OC` , field log10 IC50: 0.67
